target: SFRP-1 (Homo sapiens, UniProt Q8N474); experiment: Cell-based assay for in vitro measurement of SFRP-1/SARP2 antagonist activity (U2OS cells co-transfected with 16x TCF-tk-Luciferase reporter, Wnt and hSFRP-1);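 further: U2OS cells co-transfected with a TCF-tk luciferase reporter, a Wnt vector, hSFRP-1 or empty vector and CMV-βgal, luciferase luminescence read in cell lysates alongside βgal activity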
Sequence (Q8N474 32-314): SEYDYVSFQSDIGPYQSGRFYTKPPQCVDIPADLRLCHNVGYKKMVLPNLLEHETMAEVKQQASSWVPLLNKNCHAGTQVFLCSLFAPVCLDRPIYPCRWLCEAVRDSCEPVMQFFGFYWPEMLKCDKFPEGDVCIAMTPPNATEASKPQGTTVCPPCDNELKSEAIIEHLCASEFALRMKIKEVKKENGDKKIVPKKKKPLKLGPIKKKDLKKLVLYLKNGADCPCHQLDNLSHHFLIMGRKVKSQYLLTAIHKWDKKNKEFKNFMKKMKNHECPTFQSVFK
I'd appreciate it if you could supply pEC50 values for the items below.
One number for each entry, as −log10 of the molar value.

A selection of reference data follows.
{"COMPOUND": "O=C(O)c1ccc(-c2ccc(CNS(=O)(=O)c3cc(S(=O)(=O)c4ccccc4)ccc3C(F)(F)F)cc2)cc1", "OBSERVED": 5.53}
{"COMPOUND": "CCOc1ccc2ccccc2c1C(=O)N1CCC(NS(=O)(=O)c2cc(S(=O)(=O)c3ccccc3)ccc2C(C)C)CC1", "OBSERVED": 6.17}

// each listed compound needs a value for pEC50
1. CN(CCNS(=O)(=O)c1cc(S(=O)(=O)c2ccccc2)ccc1C(F)(F)F)C(=O)c1cccnc1Cl
2. O=S(=O)(NCCO)c1cc(S(=O)(=O)c2ccccc2)ccc1C(F)(F)F
3. Nc1ccc(CCNS(=O)(=O)c2cc(S(=O)(=O)c3ccccc3)ccc2C(F)(F)F)cc1
4. CN(CCNS(=O)(=O)c1cc(S(=O)(=O)c2ccccc2)ccc1C(F)(F)F)C(=O)N[C@H]1CCN(C(=O)OC(C)(C)C)C1
5. O=S(=O)(NCC1CCNCC1)c1cc(S(=O)(=O)c2ccccc2)ccc1C(F)(F)F
6. CCN(CC)C(=O)N(C)CCNS(=O)(=O)c1cc(S(=O)(=O)c2ccccc2)ccc1C(F)(F)F

1: 5.82; 2: 5.37; 3: 6.42; 4: 5.87; 5: 6.05; 6: 5.83

Batch request: pEC50 for each of the following compounds.
1. O=S(=O)(NCCc1ccncc1)c1cc(S(=O)(=O)c2ccccc2)ccc1C(F)(F)F
2. N#CCCNS(=O)(=O)c1cc(S(=O)(=O)c2ccc(O)cc2)ccc1C(F)(F)F
3. O=C(c1ccc(F)cc1)N1CCC(NS(=O)(=O)c2cc(S(=O)(=O)c3ccccc3)ccc2Cl)CC1
4. O=C(c1ccc(F)cc1Cl)N1CCC(NS(=O)(=O)c2cc(S(=O)(=O)c3ccccc3)ccc2C(F)(F)F)CC1
5. CNCCCNS(=O)(=O)c1cc(S(=O)(=O)c2ccccc2)ccc1C(F)(F)F
6. O=S(=O)(NCCc1cccnc1)c1cc(S(=O)(=O)c2ccccc2)ccc1C(F)(F)F

1. 6.13
2. 6.20
3. 4.93
4. 5.75
5. 5.48
6. 6.31

Report pEC50 for COC(=O)COc1ccc2c(c1)CC(NS(=O)(=O)c1cc(S(=O)(=O)c3ccccc3)ccc1C(F)(F)F)C2 (stereo not drawn) please. 7.06
